# ASSAY TEXT: CCTE_Shafer_MEA_dev_correlation_coefficient_mean: CCTE's Neural Network Formation Assay for Mean Correlation Coefficient, Shafer Lab (AID 2284093)
Active and inactive are the calls of the source. How the source made its calls: active means hit-call score of the fitted dose curve at least 0.9, where 1 is the maximum; inactive means score below 0.9.
Outcomes: 1.0 = active, 0.0 = inactive

{"COMPOUND": "CC(C)COC(=O)c1ccccc1C(=O)OCC(C)C", "CLASS NAME": 1.0}
{"COMPOUND": "Clc1ccc(C(c2ccc(Cl)cc2)C(Cl)Cl)cc1", "CLASS NAME": 1.0}
{"COMPOUND": "CC(C)(O)c1cnn2c(-c3ccc(F)c(-c4c(F)cccc4C#N)c3)cnc2n1", "CLASS NAME": 0.0}
